Exercise: for every item that follows, state its recorded cell viability.
# Test system: HepG2
# test details: cell viability relative to DMSO; higher = less toxic
# experimental conditions: 72 h; 10 nM
// return the numeric value with its unit appended

The reported value for CCCCCC(C)N (stereo not given) in terms of cell viability is 94.9%

The reported value for O=C(O)/C=C/CO [trans-4-hydroxycrotonic-acid] in terms of cell viability is 92%

The reported value for N[C@H](Cc1ccccc1)C(=O)O in terms of cell viability is 109%

The reported value for CNC(=O)[C@@H](NC(=O)[C@H](CC(C)C)[C@H](O)C(=O)NO)C(C)(C)C in terms of cell viability is 99.7%

The reported value for COc1ccc(-c2cc(=O)c3c(OC)c(OC)c(OC)c(OC)c3o2)cc1 in terms of cell viability is 101%

The reported value for CC(C)C[C@H](NC(=O)CNC(=O)c1cc(Cl)ccc1Cl)B1OC(=O)C(CC(=O)O)(CC(=O)O)O1 [ixazomib-citrate] in terms of cell viability is 107%

The reported value for CCn1c(=O)/c(=C2\Sc3ccccc3N2C)s/c1=C\c1cccc[n+]1CC in terms of cell viability is 92.8%

The reported value for C=CCN1CCN(c2nc3ccccc3nc2C#N)CC1 in terms of cell viability is 104%

The reported value for CCCC(=O)O [sodium-butyrate] in terms of cell viability is 91.8%

The reported value for Oc1cc2c(cc1O)C(c1ccccc1)CNCC2 (stereo not given) in terms of cell viability is 104%

The reported value for CCN1CCC[C@H]1CNC(=O)c1c(O)c(Cl)cc(Cl)c1OC [raclopride] in terms of cell viability is 104%

The reported value for CC1C=CC=CCCC=CC=CC=CC=CC(OC2OC(C)C(O)C(N)C2O)CC2OC(O)(CC(O)C(O)CCC(O)CC(O)CC(O)CC(=O)OC(C)C(C)C1O)CC(O)C2C(=O)O (stereo not given) in terms of cell viability is 101%

The reported value for O=c1cc(-c2ccc(O)c(O)c2)oc2cc(O)cc(O)c12 in terms of cell viability is 99.4%

The reported value for C[C@@H]1CC(=O)NN=C1c1ccc(NN=C(C#N)C#N)cc1 in terms of cell viability is 102%

The reported value for CC(C)(C)c1ccc(S(=O)(=O)Nc2ccc(Cl)cc2C(=O)c2cc[n+]([O-])cc2)cc1 in terms of cell viability is 93.7%

The reported value for CC1=C(/C=C/C(C)=C/C=C/C(C)=C/C(=O)Nc2ccc(O)cc2)C(C)(C)CCC1 [fenretinide] in terms of cell viability is 92.6%

The reported value for CNC(=O)c1ccc(C)c(-n2c(C)cc(OCc3ccc(F)cc3F)c(Br)c2=O)c1 in terms of cell viability is 104%

The reported value for c1coc(-c2nnc3sc(C4CCCCC4)nn23)c1 in terms of cell viability is 97.1%

The reported value for CC(=O)O[C@H]1Cc2ccccc2N(C(N)=O)c2ccccc21 [eslicarbazepine-acetate] in terms of cell viability is 85.9%

The reported value for COc1ccccc1C1(O)CCN(CCCn2c3ccccc3c3ccccc32)CC1 in terms of cell viability is 99.7%

---

# Tested on: Caco-2
# test details: cell viability relative to DMSO; higher = less toxic
# experimental conditions: 72 h; 1 nM
measured endpoint: cell viability (%)
// units = %; emit number, no label

The reported value for O=C(c1c(F)ccc(NS(=O)(=O)N2CC[C@@H](F)C2)c1F)c1c[nH]c2ncc(-c3cnc(C4CC4)nc3)cc12 [PLX8394] in terms of cell viability is 102

The reported value for Cc1c(Cl)cccc1S(=O)(=O)Nc1nc(NCCc2ccccc2)nc2c1CN(Cc1ccccc1)CC2 [CaMKII-IN-1] in terms of cell viability is 98.9

The reported value for CCCCCCCCCCCCCC(=O)OC(C)C [isopropyl-myristate] in terms of cell viability is 111

The reported value for Cc1ccc(N2CCN(CC[C@H]3NC(=O)c4ccccc43)CC2)cc1C in terms of cell viability is 97.3

The reported value for COc1cc([C@@H]2c3cc4c(cc3[C@@H](O[C@@H]3O[C@@H]5CO[C@@H](C)O[C@H]5[C@H](O)[C@H]3O)[C@H]3COC(=O)[C@H]23)OCO4)cc(OC)c1O [etoposide] in terms of cell viability is 93.5

The reported value for Cc1c(C)c2c(c(C)c1OC(=O)CCC(=O)OCCO)CC[C@@](C)(CCC[C@H](C)CCC[C@H](C)CCCC(C)C)O2 [tocofersolan] in terms of cell viability is 96.8

The reported value for CCn1cc(C(=O)O)c(=O)c2ccc(C)nc21 [nalidixic-acid] in terms of cell viability is 96.3

The reported value for CS(=O)(=O)Nc1ccc2oc3c(OC(F)F)ccc(C(=O)Nc4c(Cl)cncc4Cl)c3c2c1 [oglemilast] in terms of cell viability is 108

---

# Test system: A549-ACE2 infected with SARS-CoV-2
# test details: cell count relative to DMSO; higher = less toxic
# experimental conditions: 10 µM; 24 h
measured endpoint: cell count (%)
// units = %; emit number, no label

The reported value for O=C(c1ccc(/C=C/c2n[nH]c3ccccc23)cc1)N1CCNCC1 in terms of cell count is 39

The reported value for CCCCCCCCc1ccc(CCC(N)(CO)CO)cc1 in terms of cell count is 114

The reported value for CC(=O)N(O)[C@@H]1c2cc(C#N)ccc2OC(C)(C)[C@H]1O in terms of cell count is 119

The reported value for CC(C)(C)Cn1c(N)nc2ccc(-c3[nH]c(C(C)(C)C)nc3-c3ccc(F)cc3)nc21 in terms of cell count is 124

The reported value for FC(F)(F)c1ccc(CNc2ccc(Cc3c[nH]c4ncc(Cl)cc34)cn2)cn1 in terms of cell count is 101

The reported value for C[C@@H]1C[C@H]2[C@@H]3CCC4=CC(=O)C=C[C@]4(C)[C@@]3(Cl)[C@@H](O)C[C@]2(C)[C@@]1(OC(=O)c1ccco1)C(=O)CCl [MOMETASONE FUROATE] in terms of cell count is 108

---

# Test system: Caco-2
# test details: cell viability relative to DMSO; higher = less toxic
# experimental conditions: 72 h; 100 nM
measured endpoint: cell viability (%)
// units = %; emit number, no label

The reported value for Cc1ccccc1NC(=N)Nc1ccccc1C in terms of cell viability is 103

The reported value for C[C@@H]1C[C@H]2[C@@H]3C[C@H](F)C4=CC(=O)C=C[C@]4(C)[C@@]3(F)[C@@H](O)C[C@]2(C)[C@@]1(O)C(=O)COC(=O)C(C)(C)C [flumethasone-pivalate] in terms of cell viability is 122

The reported value for C=C1C(=O)O[C@@H]2[C@H]3O[C@]3(C)CC/C=C(\C)CC[C@@H]12 [parthenolide-(alternate-stereo)] in terms of cell viability is 96.8

The reported value for Nc1nc(N)c2nc(-c3cccc(O)c3)cnc2n1 in terms of cell viability is 99.1

---

Exercise: for every item that follows, state its recorded cell viability.
# Test system: Vero E6
# test details: cell viability relative to DMSO; higher = less toxic
# experimental conditions: 72 h; 10 nM
// units = %; emit number, no label

The reported value for CC(C)(C)NC[C@H](O)COc1cccc2c1CCCC2=O [levobunolol] in terms of cell viability is 94.6

The reported value for Cc1[nH]c(/C=C2\C(=O)Nc3ccc(S(=O)(=O)Cc4c(Cl)cccc4Cl)cc32)c(C)c1C(=O)N1CCC[C@@H]1CN1CCCC1 in terms of cell viability is 97.5

The reported value for COc1cc(NS(=O)(=O)c2ccc(N)cc2)ncn1 [sulfamonomethoxine] in terms of cell viability is 106

The reported value for COC(=O)C1=C(C)NC(C)=C([N+](=O)[O-])[C@@H]1c1ccccc1C(F)(F)F (racemic) [BAY-K-8644-(+/-)] in terms of cell viability is 97.9

---

# System: A549-ACE2
# test details: drug-induced phospholipidosis relative to tamoxifen; higher = more phospholipidosis
# experimental conditions: 0.3 µM; 72 h
measured endpoint: drug-induced phospholipidosis (%)
// units = %; emit number, no label

The reported value for FC(F)(F)c1ccc(CNc2ccc(Cc3c[nH]c4ncc(Cl)cc34)cn2)cn1 [pexidartinib] in terms of drug-induced phospholipidosis is 4.54

The reported value for CC(=O)N(O)[C@@H]1c2cc(C#N)ccc2OC(C)(C)[C@H]1O in terms of drug-induced phospholipidosis is 1.36

The reported value for Cc1[nH]c(/C=C2\C(=O)Nc3ccc(S(=O)(=O)Cc4c(Cl)cccc4Cl)cc32)c(C)c1C(=O)N1CCC[C@@H]1CN1CCCC1 in terms of drug-induced phospholipidosis is 13.7

The reported value for COc1ccccc1C1(O)CCN(CCCn2c3ccccc3c3ccccc32)CC1 [NNC-05-2090] in terms of drug-induced phospholipidosis is 5.37
